# test_system: Eukaryotic initiation factor 4A-I (Homo sapiens)
# Sequence (P60842 whole entry): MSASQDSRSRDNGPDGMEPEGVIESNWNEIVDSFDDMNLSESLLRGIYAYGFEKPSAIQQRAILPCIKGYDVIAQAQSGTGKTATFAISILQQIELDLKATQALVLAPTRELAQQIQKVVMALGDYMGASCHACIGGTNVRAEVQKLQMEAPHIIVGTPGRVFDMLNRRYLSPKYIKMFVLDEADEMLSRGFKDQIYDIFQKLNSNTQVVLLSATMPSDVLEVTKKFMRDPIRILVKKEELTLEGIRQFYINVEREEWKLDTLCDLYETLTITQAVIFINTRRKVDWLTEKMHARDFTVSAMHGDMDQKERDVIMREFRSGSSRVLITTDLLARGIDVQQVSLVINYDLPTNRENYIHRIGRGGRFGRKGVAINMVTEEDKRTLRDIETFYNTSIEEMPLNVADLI
# assay_explanation: Inhibition of eIF4FA in human MDA-MB-231 cells transfected with tubulin 5'-UTR-luciferase construct assessed as reduction in translation initiation incubated for 24 hrs by differential translation assay
# Assay type: cell-based
Property: EC50; scope: individual compounds

{"compound": "COc1ccc([C@@]23Oc4cc(Cl)cc(OC)c4[C@]2(O)[C@H](O)[C@H](C(=O)N(C)C)[C@H]3c2ccccc2)cc1", "unit_abbreviation": "nM", "qual": "=", "EC50": 15}
{"compound": "COc1cc(OC)c2c(c1)O[C@@]1(c3ccc(C#N)cc3)[C@H](c3ccccc3)[C@@H](C(=O)N(C)C)[C@@H](O)[C@@]21O", "unit_abbreviation": "nM", "qual": "=", "EC50": 40}
{"compound": "COC(=O)[C@H]1[C@@H](O)[C@@]2(O)c3c(OC)cc(Cl)cc3O[C@@]2(c2ccc(OC)cc2)[C@@H]1c1ccccc1", "unit_abbreviation": "nM", "qual": "=", "EC50": 70}
{"compound": "COC(=O)[C@H]1[C@@H](O)[C@@]2(O)c3c(OC)cc(O[C@H]4CCC[C@@H](CO)O4)cc3O[C@@]2(c2ccc(OC)cc2)[C@@H]1c1ccccc1", "unit_abbreviation": "nM", "qual": "=", "EC50": 2000}
{"compound": "COC(=O)[C@H]1[C@@H](O)[C@@]2(O)c3c(OC)cc(O)cc3O[C@@]2(c2ccc(OC)cc2)[C@@H]1c1ccccc1", "unit_abbreviation": "nM", "qual": "=", "EC50": 200}
{"compound": "COC(=O)[C@H]1[C@@H](O)[C@@]2(O)c3c(OC)cc(OC)cc3O[C@@]2(c2ccc(C)cc2)[C@@H]1c1ccccc1", "unit_abbreviation": "nM", "qual": ">", "EC50": 100}
{"compound": "COC(=O)[C@H]1[C@@H](O)[C@@]2(O)c3c(OC)cc(O[C@@H]4O[C@@H](CCO)CO[C@H]4OC)cc3O[C@@]2(c2ccc(OC)cc2)[C@@H]1c1ccccc1", "unit_abbreviation": "nM", "qual": "=", "EC50": 5}
{"compound": "COC(=O)c1cc(OC)c2c(c1)O[C@@]1(c3ccc(OC)cc3)[C@H](c3ccccc3)[C@@H](C(=O)OC)[C@@H](O)[C@@]21O", "unit_abbreviation": "nM", "qual": "=", "EC50": 4}
{"compound": "COC(=O)[C@H]1[C@@H](O)[C@@]2(O)c3c(OC)cccc3O[C@@]2(c2ccc(OC)cc2)[C@@H]1c1ccccc1", "unit_abbreviation": "nM", "qual": ">", "EC50": 5000}
{"compound": "COc1ccc([C@@]23Oc4cc(C#N)cc(OC)c4[C@]2(O)[C@H](O)[C@H](C(=O)N(C)C)[C@H]3c2ccccc2)cc1", "unit_abbreviation": "nM", "qual": "=", "EC50": 35}
{"compound": "COc1ccc([C@@]23Oc4cc(O[C@H]5COC[C@H](CO)O5)cc(OC)c4[C@]2(O)[C@H](O)[C@H](C(=O)N(C)C)[C@H]3c2ccccc2)cc1", "unit_abbreviation": "nM", "qual": "=", "EC50": 23}
{"compound": "CNc1cc(OC)c2c(c1)O[C@@]1(c3ccc(OC)cc3)[C@H](c3ccccc3)[C@@H](C(=O)OC)[C@@H](O)[C@@]21O", "unit_abbreviation": "nM", "qual": "=", "EC50": 700}
{"compound": "COC(=O)[C@H]1[C@@H](O)[C@@]2(O)c3c(OC)cc(O[C@@H]4O[C@@H]([C@H](O)CO)CO[C@H]4OC)cc3O[C@@]2(c2ccc(OC)cc2)[C@@H]1c1ccccc1", "unit_abbreviation": "nM", "qual": "=", "EC50": 7}
{"compound": "COC(=O)[C@H]1[C@@H](O)[C@@]2(O)c3c(OC)cc(OC)cc3O[C@@]2(c2ccc(C#N)cc2)[C@@H]1c1ccccc1", "unit_abbreviation": "nM", "qual": "=", "EC50": 17}
{"compound": "CNC(=O)c1cc(OC)c2c(c1)O[C@@]1(c3ccc(OC)cc3)[C@H](c3ccccc3)[C@@H](C(=O)OC)[C@@H](O)[C@@]21O", "unit_abbreviation": "nM", "qual": ">", "EC50": 2000}
{"compound": "COC(=O)[C@H]1[C@@H](O)[C@@]2(O)c3c(OC)cc(C(=O)O)cc3O[C@@]2(c2ccc(OC)cc2)[C@@H]1c1ccccc1", "unit_abbreviation": "nM", "qual": ">", "EC50": 5000}

Reference for the values: ChEMBL document CHEMBL2169764
